- TARGET_OF_ASSAY: Recombinant human his-tagged IGF 1R extracellular domain protein (human) (UniProt P08069)
- EXPERIMENTAL_DETAILS: SPR, captured antibody, pH 7.4
RECORDED_ENDPOINT: Kd (nM)
// note: answer is a bare numeric in nM

VRDN-03044 (antibody, V domains shown) VH: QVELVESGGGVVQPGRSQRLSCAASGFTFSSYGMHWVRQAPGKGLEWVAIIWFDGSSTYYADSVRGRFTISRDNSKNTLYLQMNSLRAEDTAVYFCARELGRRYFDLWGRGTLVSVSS VL: EIVLTQSPATLSLSPGERATLSCRASQSVHSYLAWYQQKPGQAPRLLIYDASKRATGIPARFSGSGSGTDFTLTISSLEPEDFAVYYCQQRSKWPPWTFGQGTKVESK
1.96
VRDN-03107 (antibody, V domains shown) VH: QVQLVESGGGVVQPGRSLRLSCAASGFTFSSYSMHWVRQAPGKGLEWVAIIWFDGSSKYYADSVKGRFTISRDNSKNTLYLQMNSLRAEDTAVYYCARELGRRYFDIWGRGTLVTVSS VL: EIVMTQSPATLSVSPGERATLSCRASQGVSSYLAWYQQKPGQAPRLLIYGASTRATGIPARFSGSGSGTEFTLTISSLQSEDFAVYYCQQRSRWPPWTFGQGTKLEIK
2.69

Then there is this binder:
For the binder VRDN-03122 (antibody, V domains shown) VH: EVQLVESGGGVVQPGRSLRLSCAASGFTFSSYSMHWVRQAPGKGLEWVAVIWYDGSSKYYADSVKSRFTISRDNSKNTLYLQMNSLRAEDTAVYYCARELGRRYFDIWGQGTLVTVSS VL: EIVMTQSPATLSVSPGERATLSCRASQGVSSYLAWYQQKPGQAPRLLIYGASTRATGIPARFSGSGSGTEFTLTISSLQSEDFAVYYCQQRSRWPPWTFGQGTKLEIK , give its measured Kd value.
4.09
